molecular target: EDNRA (Homo sapiens); construct: purchased Promega (in-house HiBiT-GPCR construct library, NanoBRET); test: NanoBRET screen HiBiT-EDNRA in HEK293; format: binding; conditions: EDNRA; tracer 1μM
Sequence (P25101 21-427): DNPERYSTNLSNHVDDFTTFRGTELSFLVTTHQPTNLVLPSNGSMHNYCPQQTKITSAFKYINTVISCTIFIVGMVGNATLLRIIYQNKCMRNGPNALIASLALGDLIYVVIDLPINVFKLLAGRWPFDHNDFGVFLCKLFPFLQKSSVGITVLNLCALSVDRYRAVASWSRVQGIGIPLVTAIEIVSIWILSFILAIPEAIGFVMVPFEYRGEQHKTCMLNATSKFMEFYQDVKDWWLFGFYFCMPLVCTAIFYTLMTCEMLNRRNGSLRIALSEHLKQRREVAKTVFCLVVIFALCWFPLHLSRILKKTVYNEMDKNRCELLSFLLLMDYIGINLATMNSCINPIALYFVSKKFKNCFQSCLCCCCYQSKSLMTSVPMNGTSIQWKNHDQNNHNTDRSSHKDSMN
MEASURE NAME: NanoBRET Fold Response
Numbers only.

Solved cases below.
CC(C)N(CC[C@H](c1ccccc1)c1cc(CCNC(=O)c2ccc(CNC(=O)CCc3ccc4n3[B-](F)(F)[N+]3=C(c5ccc[nH]5)C=CC3=C4)cc2)ccc1O)C(C)C = 1.11
CCCn1c(=O)c2[nH]c(-c3ccc(OCC(=O)NCCNC(=O)CCOCCNC(=O)c4ccc(CNC(=O)CCc5ccc6n5[B-](F)(F)[N+]5=C(c7ccc[nH]7)C=CC5=C6)cc4)cc3)nc2n(CCC)c1=O = 1.15

Moving on to the next compound.
Bench note: what NanoBRET Fold Response did Cc1cc2c(s1)Nc1ccccc1N=C2N1CCN(CCCNC(=O)CCOCCOCCOCCOCCNC(=O)CCc2ccc3n2[B-](F)(F)[N+]2=C(c4ccc[nH]4)C=CC2=C3)CC1 show?
1.10
